Known herbicidal effect index, Amaranthus retroflexus of a selection of molecules
test system: A. retroflexus; assay: Herbicidal activity by field soil treatment (Test example 2); type: in vivo; set-up: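 index 0 to 10 in 10% steps of herbicidal effect with 10 meaning complete death and 0 below 10%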; settings: 1000 g effective component per hectare, day 21 after the treatment
// return a plain number; no unit text

The examples below pair each entry with its known result.
Would you kindly share the measured herbicidal effect index, Amaranthus retroflexus for CCn1nc(C(=O)C2=C(O)CCCC2=O)c(=O)n(-c2ccccc2)c1=O [I-259] ?
10

Would you kindly share the measured herbicidal effect index, Amaranthus retroflexus for Cn1nc(C(=O)C2=C(O)CCCC2=O)c(=O)n(-c2ccc(Cl)cc2Cl)c1=O [I-84] ?
10

Continuing:
Would you kindly share the measured herbicidal effect index, Amaranthus retroflexus for Cc1c(Cl)cccc1-n1c(=O)c(C(=O)C2=C(O)CCCC2=O)nn(C)c1=O [I-136] ?
9

Would you kindly share the measured herbicidal effect index, Amaranthus retroflexus for Cn1c(=O)c(C(=O)C2=C(O)CCCC2=O)nn(-c2ccccn2)c1=O [I-274] ?
7

Would you kindly share the measured herbicidal effect index, Amaranthus retroflexus for Cc1ccc(C(F)(F)F)cc1-n1c(=O)c(C(=O)C2=C(O)CCCC2=O)nn(C)c1=O [I-284] ?
10

Would you kindly share the measured herbicidal effect index, Amaranthus retroflexus for CCCCCn1nc(C(=O)C2=C(O)CCCC2=O)c(=O)n(-c2ccccc2)c1=O [I-308] ?
10

Would you kindly share the measured herbicidal effect index, Amaranthus retroflexus for Cn1nc(C(=O)C2=C(O)CCCC2=O)c(=O)n(-c2ccccc2F)c1=O [I-54] ?
10

Would you kindly share the measured herbicidal effect index, Amaranthus retroflexus for Cc1ccc(-n2c(=O)c(C(=O)C3=C(O)CCCC3=O)nn(C)c2=O)cc1Cl [I-125] ?
10
